The entries below come with measured CC50 at 7 days values attached.
experimentNotes: In vitro cytotoxicity assay (MTT cell viability) in HepG2 cells
Assay type: cell-based, human
testParameters: human

In the examples that follow, each entry is paired with its recorded CC50 at 7 days.
Cc1cc(NC(=O)c2c(C)c(C(=O)C(=O)NCC(C)(O)c3cccs3)n(C)c2C)ccc1F (stereo not shown) : > 30 µM
COCC(C)(C)NC(=O)C(=O)c1c(C)c(C(=O)Nc2cnc(F)c(C)c2)c(C)n1C : > 30 µM
CCn1c(C)c(C(=O)Nc2ccc(F)c(C)c2)c(C)c1C(=O)C(=O)NC(C)(C)C(N)=O : > 30 µM
Cc1c(C(=O)Nc2ccc(F)c(Cl)c2)c(C)n(C)c1C(=O)C(=O)N[C@H]1CC[C@@H](O)CC1 : > 30 µM
Cc1cc(NC(=O)c2c(C)c(C(=O)C(=O)N[C@@H]3CCCN(S(C)(=O)=O)C3)n(C)c2C)ccc1F : 5 to 30 µM
Cc1c(C(=O)Nc2ccc(F)c(F)c2)c2n(c1C(=O)C(=O)NCC(C)(C)O)CCCC2 : > 30 µM

In: What value of CC50 at 7 days has been recorded for this entry: `Cc1c(C(=O)Nc2ccc(F)c(Cl)c2)c2n(c1C(=O)C(=O)N[C@H]1CCC[C@H]1O)CCCC2`
Out: 5 to 30 µM
